System: 997726-040-R-J2-PDC tumor spheroids, viability
experiment description: Anticancer human tumor 997726-040-R-J2-PDC patient-derived squamous cell lung carcinoma cell line growth inhibition [PI3K]; active means viability on the fitted dose curve at most 10% of control; inactive means the rest
condition details: second compound 0.316 µM; first compound 0.0316 µM; spheroids with HUVEC and MSC
Outcome (select one): T = active, F = inactive

Reference set (4 entries):
## Task Given Cn1ncnc1[C@H]1c2n[nH]c(=O)c3cc(F)cc(c23)N[C@@H]1c1ccc(F)cc1 + CC(Nc1ncnc2nc[nH]c12)c1cc2cccc(Cl)c2c(=O)n1-c1ccccc1 , state the outcome it received in this test.
## Result F

## Task Try this compound too: CCCS(=O)(=O)Nc1ccc(F)c(C(=O)c2c[nH]c3ncc(-c4ccc(Cl)cc4)cc23)c1F + CC(Nc1ncnc2nc[nH]c12)c1cc2cccc(Cl)c2c(=O)n1-c1ccccc1
## Result F

## Task Try this compound too: CC1(C)CCC(Nc2ncc(C(F)(F)F)c(-c3c[nH]c4c(P(C)(C)=O)c(C#N)ccc34)n2)CN1 (centres undefined) + COc1c(OCCCN2CCOCC2)ccc2c3n(c(=NC(=O)c4cnc(N)nc4)nc12)CCN3
## Result T

## Task Try this compound too: C[C@@H](NC(=O)c1ncnc(N)c1Cl)c1ncc(C(=O)Nc2cc(C(F)(F)F)c(Cl)cn2)s1 + CC(Nc1ncnc2nc[nH]c12)c1cc2cccc(Cl)c2c(=O)n1-c1ccccc1
## Result F

Others:
## Task Given CC(C)NCC(C(=O)N1CCN(c2ncnc3c2C(C)CC3O)CC1)c1ccc(Cl)cc1 (centres undefined) + Cc1nc(NC(=O)N2CCCC2C(N)=O)sc1-c1ccnc(C(C)(C)C(F)(F)F)c1 , state the outcome it received in this test.
## Result F

###

System: 997726-040-R-J2-PDC tumor spheroids, viability
experiment description: Anticancer human tumor 997726-040-R-J2-PDC cell line growth inhibition [PI3K];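 further: spheroids exposed to compounds for seven days before readout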
condition details: second compound 0.316 µM; first compound 0.0316 µM; hits give low values; spheroids with HUVEC and MSC
readout kind: viability, T/C (%)
Field format: number, assumed %, no unit text.

Use these answered entries as a reference point.
## Task I have this compound here, Cn1ncc(Cl)c1-c1cc(C(=O)NC(CN)Cc2cccc(F)c2)sc1Cl (centres undefined) + COc1c(OCCCN2CCOCC2)ccc2c3n(c(=NC(=O)c4cnc(N)nc4)nc12)CCN3 , and I need its recorded viability, T/C.
## Result 4.97

## Task Try this compound too: CC(=O)c1c(C)c2cnc(Nc3ccc(N4CCNCC4)cn3)nc2n(C2CCCC2)c1=O + CC(Nc1ncnc2nc[nH]c12)c1cc2cccc(Cl)c2c(=O)n1-c1ccccc1
## Result 81.6

## Task Try this compound too: CCN1CCN(Cc2ccc(Nc3ncc(F)c(-c4cc(F)c5nc(C)n(C(C)C)c5c4)n3)nc2)CC1 + Cc1nc(NC(=O)N2CCCC2C(N)=O)sc1-c1ccnc(C(C)(C)C(F)(F)F)c1
## Result 45

Others:
## Task I have this compound here, C=CC(=O)N1CCN(c2nc(=O)n(-c3c(C)ccnc3C(C)C)c3nc(-c4c(O)cccc4F)c(F)cc23)C(C)C1 (centres undefined) + COc1c(OCCCN2CCOCC2)ccc2c3n(c(=NC(=O)c4cnc(N)nc4)nc12)CCN3 , and I need its recorded viability, T/C.
## Result 6.57

Data origin: PubChem BioAssay AID1963964
